- measured-target: DOR (Rattus norvegicus, UniProt P33533)
- Construct: from tissue
- Sequence (P33533 whole entry): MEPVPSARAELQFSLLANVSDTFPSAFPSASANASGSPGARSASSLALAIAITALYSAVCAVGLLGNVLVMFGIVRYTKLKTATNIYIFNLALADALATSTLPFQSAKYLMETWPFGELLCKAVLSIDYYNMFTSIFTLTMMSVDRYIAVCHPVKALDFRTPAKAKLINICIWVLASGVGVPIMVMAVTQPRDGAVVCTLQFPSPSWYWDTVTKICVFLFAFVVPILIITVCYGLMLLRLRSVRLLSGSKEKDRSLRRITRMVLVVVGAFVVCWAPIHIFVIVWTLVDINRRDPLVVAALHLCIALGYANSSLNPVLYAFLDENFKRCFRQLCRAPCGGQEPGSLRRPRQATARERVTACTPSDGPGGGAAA
- test-protocol: Opioid receptor binding, DOR, rat brain membranes
- reported-conditions: in vitro binding assay, rat brain membranes; read-out: Binding Ki (nM) DOR
recorded-metric: Ki (nM)

CO[C@@]12CC[C@@H](N[C@@H](CCCCN)C(=O)OC(C)(C)C)[C@@H]3Oc4c(O)ccc5c4[C@@]31CCN(C)[C@@H]2C5 : 0.88
CCCCCCCCOC(=O)CN[C@H]1CC[C@@]2(OC)[C@H]3Cc4ccc(O)c5c4[C@@]2(CCN3C)[C@H]1O5 : 3.23
CCCCCCCCOC(=O)CN[C@@H]1CC[C@@]2(OC)[C@H]3Cc4ccc(O)c5c4[C@@]2(CCN3C)[C@H]1O5 : 2.71
CO[C@@]12CC[C@H](N[C@@H](Cc3ccccc3)C(=O)OC(C)(C)C)[C@@H]3Oc4c(O)ccc5c4[C@@]31CCN(C)[C@@H]2C5 : 0.93
CO[C@@]12CC[C@@H](N[C@@H](C(=O)OC(C)(C)C)C(C)C)[C@@H]3Oc4c(O)ccc5c4[C@@]31CCN(C)[C@@H]2C5 : 0.21
CO[C@@]12CC[C@@H](N[C@@H](CO)C(=O)OC(C)(C)C)[C@@H]3Oc4c(O)ccc5c4[C@@]31CCN(C)[C@@H]2C5 : 0.64
